# target or system: CAMK2A (Homo sapiens, UniProt Q9UQM7)
# Sequence (Q9UQM7 whole entry): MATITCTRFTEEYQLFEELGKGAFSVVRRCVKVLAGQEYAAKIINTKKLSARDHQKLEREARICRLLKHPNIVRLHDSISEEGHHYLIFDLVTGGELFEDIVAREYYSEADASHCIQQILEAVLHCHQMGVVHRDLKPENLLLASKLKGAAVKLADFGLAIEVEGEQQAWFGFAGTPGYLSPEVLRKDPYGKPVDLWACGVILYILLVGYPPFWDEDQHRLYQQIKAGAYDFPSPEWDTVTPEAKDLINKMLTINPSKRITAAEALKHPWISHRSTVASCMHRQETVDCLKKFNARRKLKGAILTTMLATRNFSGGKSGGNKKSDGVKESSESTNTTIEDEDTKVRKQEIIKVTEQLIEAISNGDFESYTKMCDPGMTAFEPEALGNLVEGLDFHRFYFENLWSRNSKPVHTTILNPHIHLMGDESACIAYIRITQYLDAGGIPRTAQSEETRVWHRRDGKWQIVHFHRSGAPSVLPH
# assay conditions: supplement CSV
endpoint label: CAMK2A Tm

- compound: "NC(=O)c1cnc(N2CCC[C@H](N)C2)nc1Nc1cc(C(F)(F)F)cc(C(F)(F)F)c1"
  target or system: "CAMK2A (Homo sapiens, UniProt Q9UQM7)"
  CAMK2A Tm: "1.09 0C"
- compound: "CC(C)c1cc(Nc2nc(N3CCC[C@H](N)C3)ncc2C(N)=O)cc(C(C)C)c1"
  target or system: "CAMK2A (Homo sapiens, UniProt Q9UQM7)"
  CAMK2A Tm: "2.19 0C"
- compound: "CC(C)(C)c1cccc(Nc2nc(N3CCC[C@H](N)C3)ncc2C(N)=O)c1"
  target or system: "CAMK2A (Homo sapiens, UniProt Q9UQM7)"
  CAMK2A Tm: "0.77 0C"
- compound: "NC(=O)c1cnc(N2CCC[C@H](N)C2)nc1Nc1cccc(-c2ccccc2)c1"
  target or system: "CAMK2A (Homo sapiens, UniProt Q9UQM7)"
  CAMK2A Tm: "2.35 0C"
- compound: "NC(=O)c1cnc(N2CCC[C@@H](N)C2)nc1Nc1cccc(C(F)(F)F)c1"
  target or system: "CAMK2A (Homo sapiens, UniProt Q9UQM7)"
  CAMK2A Tm: "1.17 0C"

Inquiry: Find CAMK2A Tm (CAMK2A (Homo sapiens, UniProt Q9UQM7)) for the entry "NC(=O)c1cnc(N2CCC[C@H](N)C2)nc1Nc1cccc(C(F)(F)F)c1"
Reply text: 1.08 0C

Inquiry: Find CAMK2A Tm (CAMK2A (Homo sapiens, UniProt Q9UQM7)) for the entry "CN(CCN)c1ncc(C(N)=O)c(Nc2cccc(C(F)(F)F)c2)n1"
Reply text: 0.49 0C

Inquiry: Find CAMK2A Tm (CAMK2A (Homo sapiens, UniProt Q9UQM7)) for the entry "CN(C)CCN(C)c1ncc(C(N)=O)c(Nc2cccc(C(F)(F)F)c2)n1"
Reply text: 0.29 0C

Inquiry: Find CAMK2A Tm (CAMK2A (Homo sapiens, UniProt Q9UQM7)) for the entry NC(=O)c1cnc(N2CCCC(N)C2)nc1Nc1cccc(C(F)(F)F)c1 (racemic)
Reply text: 1.21 0C

Inquiry: Find CAMK2A Tm (CAMK2A (Homo sapiens, UniProt Q9UQM7)) for the entry NCCNc1ncc(C(N)=O)c(Nc2cccc(C(F)(F)F)c2)n1 [Compound 1, reference compound]
Reply text: 0.21 0C

Inquiry: Find CAMK2A Tm (CAMK2A (Homo sapiens, UniProt Q9UQM7)) for the entry "CS(=O)(=O)c1cccc(Nc2nc(N3CCC[C@H](N)C3)ncc2C(N)=O)c1"
Reply text: 0.53 0C

Inquiry: Find CAMK2A Tm (CAMK2A (Homo sapiens, UniProt Q9UQM7)) for the entry CNC(=O)c1cnc(NCCN)nc1Nc1cccc(C(F)(F)F)c1 [Compound 2, reference compound]
Reply text: -0.22 0C

Inquiry: Find CAMK2A Tm (CAMK2A (Homo sapiens, UniProt Q9UQM7)) for the entry "CC(C)(C#N)c1cccc(Nc2nc(N3CCC[C@H](N)C3)ncc2C(N)=O)c1"
Reply text: 0.6 0C

Inquiry: Find CAMK2A Tm (CAMK2A (Homo sapiens, UniProt Q9UQM7)) for the entry "CC(C)(C)c1cc(Nc2nc(N3CCC[C@H](N)C3)ncc2C(N)=O)cc(C(C)(C)C)c1"
Reply text: 0.69 0C

Inquiry: Find CAMK2A Tm (CAMK2A (Homo sapiens, UniProt Q9UQM7)) for the entry "CNCCN(C)c1ncc(C(N)=O)c(Nc2cccc(C(F)(F)F)c2)n1"
Reply text: 0.1 0C
